Where do the numbers come from? From paper PMC5913336.

Molecular target: T1, Bicoid DBD-GST (Bcd) (UniProt P09081 83-170)
T1 sequence: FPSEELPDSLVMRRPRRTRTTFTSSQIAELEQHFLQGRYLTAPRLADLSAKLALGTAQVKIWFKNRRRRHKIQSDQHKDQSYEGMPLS
Assay: EMSA; direct titration; HiP-FA: 33 mM phosphate pH 7.0, 90 mM NaCl, 0.01% Tween 20, 0.1 mM DTT, 0.5% agarose; conventional titration and EMSA: 20 mM Tris-acetate pH 7.0, 50 nM (sic) NaCl, 0.01% Tween-20, 0.1 mM DTT
Settings: protein: recombinant; tags: N-terminal GST; label: Cy3; blunt
METRIC: pKd
FYI, pKd means -log10 of a concentration in mol per litre.

Problem: What pKd value was documented for this binder, Bcd EMSA 16-mer (dsDNA) DNA 1: TCGACCGTAATCCCTA DNA 2: TAGGGATTACGGTCGA ?
Solution: 8.74
